molecular target: rat TRPM8 (Rattus norvegicus); test: Elevation of intracellular Ca2+ (Fluo-4) in HEK-293 cells stably transfected with rat TRPM8
Sequence (Q8R455 whole entry): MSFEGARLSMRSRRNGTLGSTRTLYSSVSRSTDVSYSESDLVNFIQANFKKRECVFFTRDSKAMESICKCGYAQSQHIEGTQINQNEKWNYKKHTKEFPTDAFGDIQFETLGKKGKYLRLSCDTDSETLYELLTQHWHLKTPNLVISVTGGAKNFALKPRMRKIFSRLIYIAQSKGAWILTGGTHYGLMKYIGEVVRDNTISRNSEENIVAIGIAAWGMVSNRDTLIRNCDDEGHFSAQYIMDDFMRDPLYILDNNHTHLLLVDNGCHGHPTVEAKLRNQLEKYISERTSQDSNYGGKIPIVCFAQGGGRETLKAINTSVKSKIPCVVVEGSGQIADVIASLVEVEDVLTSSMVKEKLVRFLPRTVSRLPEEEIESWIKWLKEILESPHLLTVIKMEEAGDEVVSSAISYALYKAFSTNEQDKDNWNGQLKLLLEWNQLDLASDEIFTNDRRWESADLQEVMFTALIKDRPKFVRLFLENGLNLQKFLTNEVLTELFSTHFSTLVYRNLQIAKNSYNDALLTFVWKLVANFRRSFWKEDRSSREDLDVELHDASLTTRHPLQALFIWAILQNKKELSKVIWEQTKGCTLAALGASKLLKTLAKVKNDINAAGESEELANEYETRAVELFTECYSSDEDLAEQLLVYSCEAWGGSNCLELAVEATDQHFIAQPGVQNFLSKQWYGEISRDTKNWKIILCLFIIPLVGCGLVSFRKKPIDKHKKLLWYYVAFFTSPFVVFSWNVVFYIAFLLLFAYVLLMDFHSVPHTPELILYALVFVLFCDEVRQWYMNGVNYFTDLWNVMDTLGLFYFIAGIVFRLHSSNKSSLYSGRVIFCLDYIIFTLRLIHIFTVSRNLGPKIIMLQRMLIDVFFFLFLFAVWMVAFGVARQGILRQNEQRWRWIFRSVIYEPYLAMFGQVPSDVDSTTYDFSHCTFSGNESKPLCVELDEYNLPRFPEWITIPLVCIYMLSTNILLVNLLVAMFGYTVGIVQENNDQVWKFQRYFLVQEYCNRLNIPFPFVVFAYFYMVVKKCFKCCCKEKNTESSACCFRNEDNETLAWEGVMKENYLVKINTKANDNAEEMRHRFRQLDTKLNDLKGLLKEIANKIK
RESULT TYPE: IC50

Fill blank: measured IC50 of the compound C[C@@H]1O[C@@H](Oc2ccc(CN=C=S)cc2)[C@H](O)[C@H](O)[C@H]1O [Moringin] is ____.
> 100 µM

====

Molecular target: rat TRPV3 (Rattus norvegicus, UniProt Q4QYD9)
Sequence (Q4QYD9 1-791): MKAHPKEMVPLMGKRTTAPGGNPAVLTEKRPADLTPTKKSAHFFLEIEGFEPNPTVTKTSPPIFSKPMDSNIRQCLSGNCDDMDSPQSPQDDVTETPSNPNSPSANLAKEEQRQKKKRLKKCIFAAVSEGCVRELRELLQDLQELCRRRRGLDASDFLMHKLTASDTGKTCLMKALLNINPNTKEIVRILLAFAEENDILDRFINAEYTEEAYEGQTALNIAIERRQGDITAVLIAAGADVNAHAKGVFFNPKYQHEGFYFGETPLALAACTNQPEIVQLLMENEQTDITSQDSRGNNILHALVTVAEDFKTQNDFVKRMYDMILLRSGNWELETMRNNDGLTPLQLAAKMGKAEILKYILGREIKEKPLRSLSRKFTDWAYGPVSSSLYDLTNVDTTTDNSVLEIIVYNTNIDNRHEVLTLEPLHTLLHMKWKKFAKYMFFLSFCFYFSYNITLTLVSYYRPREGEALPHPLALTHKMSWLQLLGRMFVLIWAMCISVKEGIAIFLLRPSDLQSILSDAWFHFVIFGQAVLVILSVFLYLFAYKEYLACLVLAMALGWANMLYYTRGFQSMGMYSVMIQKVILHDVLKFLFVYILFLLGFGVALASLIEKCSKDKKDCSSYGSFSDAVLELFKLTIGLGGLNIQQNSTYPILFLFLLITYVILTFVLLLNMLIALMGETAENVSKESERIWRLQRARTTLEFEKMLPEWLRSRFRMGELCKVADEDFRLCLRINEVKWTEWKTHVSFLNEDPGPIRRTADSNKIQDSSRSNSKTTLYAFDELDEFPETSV
Test: Elevation of intracellular Ca2+ (Fluo-4) in HEK-293 cells stably transfected with rat TRPV3
Settings: TRPV3, against reference agonist thymol 100 μM
pIC50: −log10 of the molar value.
RESULT TYPE: pIC50

Fill blank: measured pIC50 of the compound C[C@@H]1O[C@@H](Oc2ccc(CN=C=S)cc2)[C@H](O)[C@H](O)[C@H]1O [Moringin] is ____.
< 4.00
